Source listed as paper PMC9516332.

Give inhibition at 1 µM for every item shown.
Biological target: panel of 255 wild-type kinases (Homo sapiens, UniProt Q96L34)
Sequence (Q96L34 whole entry): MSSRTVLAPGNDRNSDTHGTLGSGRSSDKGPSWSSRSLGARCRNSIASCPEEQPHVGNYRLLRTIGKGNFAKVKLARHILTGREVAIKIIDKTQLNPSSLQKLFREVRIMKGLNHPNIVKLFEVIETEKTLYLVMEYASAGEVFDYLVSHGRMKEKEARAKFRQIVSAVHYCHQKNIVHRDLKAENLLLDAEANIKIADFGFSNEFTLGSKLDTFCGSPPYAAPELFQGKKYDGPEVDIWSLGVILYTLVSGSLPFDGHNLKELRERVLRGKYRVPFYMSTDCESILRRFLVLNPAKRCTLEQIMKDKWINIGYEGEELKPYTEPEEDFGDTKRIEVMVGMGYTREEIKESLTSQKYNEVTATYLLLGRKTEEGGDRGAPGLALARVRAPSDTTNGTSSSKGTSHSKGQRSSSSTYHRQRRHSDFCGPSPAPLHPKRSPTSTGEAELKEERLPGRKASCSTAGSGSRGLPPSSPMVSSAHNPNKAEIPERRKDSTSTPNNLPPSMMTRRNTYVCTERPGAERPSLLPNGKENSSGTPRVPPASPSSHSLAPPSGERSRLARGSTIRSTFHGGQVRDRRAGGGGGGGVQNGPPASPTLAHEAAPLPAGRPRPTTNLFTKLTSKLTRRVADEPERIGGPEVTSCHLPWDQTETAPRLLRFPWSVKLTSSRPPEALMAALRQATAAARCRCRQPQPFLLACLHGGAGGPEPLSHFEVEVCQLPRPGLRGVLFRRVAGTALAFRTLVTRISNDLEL
Experiment: Kinase panel profiling at 1 µmol/L (MSA or IMAP), percentage inhibition
Type: biochemical
Conditions: MARK4; 1 µmol/L single concentration; read-out: %-inhibition, MARK4
Give bare numbers, in %.

In [3]: df
Out[3]:
                            compound_string      endpoint_label  reading_unit  numeric_readout
0  Cn1cnc2c(F)c(Nc3ccc(Br)cc3F)c(C(=O)NOCCO)cc21  inhibition at 1 µM             %               -4
1  O=C(Nc1cnn2ccc(N3CCC[C@@H]3c3cc(F)ccc3F)nc12)N1CC[C@H](O)C1  inhibition at 1 µM             %            -6.42
2  COc1cc2ncnc(Nc3ccc(F)c(Cl)c3)c2cc1NC(=O)/C=C/CN1CCCCC1  inhibition at 1 µM             %             4.31
3  CCn1c(=O)c(-c2cc(NC(=O)Nc3ccccc3)c(F)cc2Br)cc2cnc(NC)cc21  inhibition at 1 µM             %            -2.13
4  CCc1nc(C(N)=O)c(Nc2ccc(N3CCC(N4CCN(C)CC4)CC3)c(OC)c2)nc1NC1CCOCC1  inhibition at 1 µM             %               53
5  CO[C@]1(C(=O)N[C@@H](C)c2ccc(-n3cc(F)cn3)nc2)CC[C@H](c2nc(C)cc(Nc3cc(C)[nH]n3)n2)CC1  inhibition at 1 µM             %               -9
6  C[C@H]1Oc2cc(cnc2N)-c2c(nn(C)c2C#N)CN(C)C(=O)c2ccc(F)cc21  inhibition at 1 µM             %               18
7  Cc1cc(Nc2ncnc3ccc(NC4=NC(C)(C)CO4)cc23)ccc1Oc1ccn2ncnc2c1  inhibition at 1 µM             %           -0.473

Please give inhibition at 1 µM for each item listed below.
1. C=CC(=O)N1CCC([C@@H]2CCNc3c(C(N)=O)c(-c4ccc(Oc5ccccc5)cc4)nn32)CC1
2. CCN1CCN(c2ccc(Nc3cc(N(C)C(=O)Nc4c(Cl)c(OC)cc(OC)c4Cl)ncn3)cc2)CC1
3. C[C@H](Nc1ncnc2nc[nH]c12)c1cc2cccc(Cl)c2c(=O)n1-c1ccccc1

A.
-7.42
-3
4.7

----------
Target: panel of 255 wild-type kinases (Homo sapiens, UniProt Q08881)
Sequence (Q08881 whole entry): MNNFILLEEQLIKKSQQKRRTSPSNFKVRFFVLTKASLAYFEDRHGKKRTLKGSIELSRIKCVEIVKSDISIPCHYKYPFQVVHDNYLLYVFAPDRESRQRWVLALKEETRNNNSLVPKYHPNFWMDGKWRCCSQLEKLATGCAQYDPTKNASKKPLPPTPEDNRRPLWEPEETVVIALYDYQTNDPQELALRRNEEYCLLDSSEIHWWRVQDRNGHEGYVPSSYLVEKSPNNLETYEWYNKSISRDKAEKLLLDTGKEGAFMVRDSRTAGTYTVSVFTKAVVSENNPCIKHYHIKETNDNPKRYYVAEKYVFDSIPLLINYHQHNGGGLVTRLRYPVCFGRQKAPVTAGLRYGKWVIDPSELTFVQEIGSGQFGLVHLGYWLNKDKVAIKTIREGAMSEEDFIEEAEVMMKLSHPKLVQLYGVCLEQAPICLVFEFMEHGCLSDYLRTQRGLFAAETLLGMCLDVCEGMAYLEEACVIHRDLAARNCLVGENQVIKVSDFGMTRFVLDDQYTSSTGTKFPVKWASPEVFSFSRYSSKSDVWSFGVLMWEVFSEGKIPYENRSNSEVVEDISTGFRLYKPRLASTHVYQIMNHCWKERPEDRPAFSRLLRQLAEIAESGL
Experiment: Kinase panel profiling at 1 µmol/L (MSA or IMAP), percentage inhibition
Type: biochemical
Conditions: kinase ITK; 1 µmol/L single concentration; read-out: %-inhibition at 1 µmol/L, ITK
The threshold is inclusive: inhibition at 1 µM of exactly 20% counts as t; values below receive f.

Solved entries:
>>> df
                                   compound  label_value
0  COc1cc2ncnc(Nc3ccc(F)c(Cl)c3)c2cc1NC(=O)/C=C/CN1CCCCC1 [dacomitinib]            t
1  CCN1CCN(c2ccc(Nc3cc(N(C)C(=O)Nc4c(Cl)c(OC)cc(OC)c4Cl)ncn3)cc2)CC1 [infigratinib]            f
2  Cn1cnc2c(F)c(Nc3ccc(Br)cc3Cl)c(C(=O)NOCCO)cc21 [selumetinib]            f
3  CN1CCN(c2ccc(C(=O)Nc3n[nH]c4ccc(Cc5cc(F)cc(F)c5)cc34)c(NC3CCOCC3)c2)CC1 [entrectinib]            t
4  C=CC(=O)N1CCC([C@@H]2CCNc3c(C(N)=O)c(-c4ccc(Oc5ccccc5)cc4)nn32)CC1 [zanubrutinib]            t

Q. Determine whether this compound has inhibition at 1 µM no lower than 20%: CCN1C(=O)N(c2c(F)c(OC)cc(OC)c2F)Cc2cnc3[nH]c(CN4CCOCC4)cc3c21 [pemigatinib]
A. f

Q. Kindly determine if inhibition at 1 µM recorded for Cn1cc(-c2cc3c(N4CCN(c5ncc([C@@](C)(N)c6ccc(F)cc6)cn5)CC4)ncnn3c2)cn1 [avapritinib] is above or exactly 20%.
A. f

Q. Hello, I need to know if C[C@H](Nc1ncnc2nc[nH]c12)c1cc2cccc(Cl)c2c(=O)n1-c1ccccc1 [duvelisib] has measured inhibition at 1 µM not below 20%. Thanks!
A. f
